Field: koff. Provide a value for each of the binders that follow.
Target: T1, biotinylated hTfR1 (Acro Bio p/n TFR-H82E5) (human, UniProt P02786 89-760, biotinylated; site not stated)
T1 construct: Bought reagent of the BLI assay
T1 sequence (P02786 89-760 limits assumed): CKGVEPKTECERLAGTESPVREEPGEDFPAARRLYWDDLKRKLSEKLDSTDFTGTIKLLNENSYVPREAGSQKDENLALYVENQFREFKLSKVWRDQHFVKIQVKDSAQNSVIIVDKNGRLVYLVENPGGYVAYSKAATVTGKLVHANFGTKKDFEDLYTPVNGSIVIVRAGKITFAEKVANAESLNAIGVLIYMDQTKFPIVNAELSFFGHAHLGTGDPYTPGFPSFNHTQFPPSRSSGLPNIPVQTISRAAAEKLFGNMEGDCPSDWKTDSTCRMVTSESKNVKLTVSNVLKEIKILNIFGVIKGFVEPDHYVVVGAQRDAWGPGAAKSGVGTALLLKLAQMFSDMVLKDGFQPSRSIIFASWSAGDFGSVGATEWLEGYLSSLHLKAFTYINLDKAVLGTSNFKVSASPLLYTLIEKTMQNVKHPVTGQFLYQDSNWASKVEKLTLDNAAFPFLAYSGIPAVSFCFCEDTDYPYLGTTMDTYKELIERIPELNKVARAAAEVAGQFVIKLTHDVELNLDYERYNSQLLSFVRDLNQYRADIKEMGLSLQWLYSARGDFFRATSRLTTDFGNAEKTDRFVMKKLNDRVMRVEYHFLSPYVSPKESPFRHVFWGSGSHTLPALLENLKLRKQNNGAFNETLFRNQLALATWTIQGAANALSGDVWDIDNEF
Experiment: BLI, Octet RH16, biotinylated TfR1 on streptavidin sensor; Fab-siRNA conjugate
Method: Samples were analyzed via Bio-Layer Interferometry (BLI) to determine kinetics against human transferrin receptor 1 (hTfR1). Briefly, an Octet RH16 (Sartorius) was used for BLI measurements using streptavidin biosensors (Sartorius p/n 18-5019) to irreversibly immobilize biotinylated hTfR1 (Acro Bio p/n TFR-H82E5). […] Sample results are analyzed in Octet Analysis software.
# output: bare number, implied unit s⁻¹

# koff of Fab0060-siRNA conjugate (Fab, V domains shown, siRNA-linker on a reduced cysteine; chain and residue not stated, also called Fab0060 (BLI conjugate columns)) VH: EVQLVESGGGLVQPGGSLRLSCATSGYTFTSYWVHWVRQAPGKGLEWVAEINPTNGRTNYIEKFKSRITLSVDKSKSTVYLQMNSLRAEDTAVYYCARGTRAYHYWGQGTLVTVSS VL: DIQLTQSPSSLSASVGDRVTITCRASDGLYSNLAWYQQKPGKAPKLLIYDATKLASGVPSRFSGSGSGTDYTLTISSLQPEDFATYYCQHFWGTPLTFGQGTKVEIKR = 0.00109

Summary for this binder, Fab0072-siRNA conjugate (Fab, V domains shown, siRNA-linker on a reduced cysteine; chain and residue not stated, also called Fab0072 (BLI conjugate columns)) VH: EVQLVESGGGLVQPGGSLRLSCATSGYTFNSYWMHWVRQAPGKGLEWVAEINPTNGRFNYIEKFKSRITLSVDKSKSTVYLQMNSLRAEDTAVYYCARGTRAYHYWGQGTLVTVSS VL: DIQLTQSPSSLSASVGDRVTITCRASDNLYRNLAWYQQKPGKAPKLLIYDARNLASGVPSRFSGSGSGTDYTLTISSLQPEDFATYYCQHFWGTPLTFGQGTKVEIKR : koff is 0.000262

Looking up Fab0002-siRNA conjugate (Fab, V domains shown, siRNA-linker on a reduced cysteine; chain and residue not stated, also called Fab0002 (BLI conjugate columns)) VH: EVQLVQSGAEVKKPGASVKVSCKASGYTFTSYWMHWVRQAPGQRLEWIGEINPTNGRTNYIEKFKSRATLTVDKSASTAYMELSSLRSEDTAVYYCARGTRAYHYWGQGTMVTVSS VL: DIQMTQSPSSLSASVGDRVTITCRASDNLYSNLAWYQQKPGKSPKLLVYDATNLADGVPSRFSGSGSGTDYTLTISSLQPEDFATYYCQHFWGTPLTFGQGTKVEIKR , I see its koff listed as 0.00349

# credit: patent US20260191981A1
